Every entry's value here was drawn from paper PMC3928310.

# assay-system: T1, MC1 W74F (Methanosarcina thermophila CHTI55, UniProt P12770 1-93, W74F)
# T1 sequence: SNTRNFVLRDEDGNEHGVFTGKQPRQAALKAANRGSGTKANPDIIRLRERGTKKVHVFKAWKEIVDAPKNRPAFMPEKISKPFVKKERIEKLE
# procedure-text: EMSA; EMSA: 10 mM Tris-HCl pH 7.5, 150 mM NaCl, 1 mM EDTA, 15 ug/ml BSA, 8% glycerol, 15 min at 20 C, 0.1 nM DNA, TBE gel; NMR PRE: 10 mM phosphate pH 6, 100 mM NaCl, 10% D2O
# condition-set: protein: recombinant; label: 5'-32P on one strand; blunt
pKd: −log10 of the molar value.
endpoint-name: pKd

binder="26 bp EMSA duplex (dsDNA) DNA 1: GCCTCAAAAACACACACCCCCGACAG DNA 2: CTGTCGGGGGTGTGTGTTTTTGAGGC" data_value=8.08
